These measurements were taken from patent US20230134571A1.

assayedSystem: HIV Env of isolate T263-8 (clade AG) (HIV)
protocolDescription: cell-based or functional assay
Would you kindly list IC50 (µg/ml) with constrains for each of these binders?
Answers are plain numbers, in µg/mL.

A selection of reference data follows.
| binder | readoutLabel | testValue |
| --- | --- | --- |
| ePGDM5 (antibody, V domains shown) VH: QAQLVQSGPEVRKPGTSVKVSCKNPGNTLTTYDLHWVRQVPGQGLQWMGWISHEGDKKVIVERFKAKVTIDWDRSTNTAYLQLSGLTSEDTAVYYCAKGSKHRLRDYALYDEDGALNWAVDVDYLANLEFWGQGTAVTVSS VL: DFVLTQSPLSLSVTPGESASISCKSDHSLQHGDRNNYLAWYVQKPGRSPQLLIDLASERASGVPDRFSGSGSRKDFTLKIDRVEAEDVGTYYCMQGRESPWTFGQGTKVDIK | IC50 (µg/ml) with constrains | 0.019 |
| ePGDM13 (antibody, V domains shown) VH: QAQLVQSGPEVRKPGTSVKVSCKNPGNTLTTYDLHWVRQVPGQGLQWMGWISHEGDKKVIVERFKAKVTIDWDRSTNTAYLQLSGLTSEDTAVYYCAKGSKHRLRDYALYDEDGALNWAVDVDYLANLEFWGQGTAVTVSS VL: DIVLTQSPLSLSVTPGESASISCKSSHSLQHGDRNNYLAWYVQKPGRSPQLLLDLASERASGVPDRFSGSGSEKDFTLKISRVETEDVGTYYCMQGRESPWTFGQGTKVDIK | IC50 (µg/ml) with constrains | 0.025 |
| ePGDM9 (antibody, V domains shown) VH: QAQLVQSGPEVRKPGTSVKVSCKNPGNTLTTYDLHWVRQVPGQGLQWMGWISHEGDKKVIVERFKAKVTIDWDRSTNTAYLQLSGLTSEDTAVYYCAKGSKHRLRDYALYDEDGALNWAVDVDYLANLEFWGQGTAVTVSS VL: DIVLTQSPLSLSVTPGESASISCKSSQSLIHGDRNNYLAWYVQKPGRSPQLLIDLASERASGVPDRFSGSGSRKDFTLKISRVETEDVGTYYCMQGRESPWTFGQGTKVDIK | IC50 (µg/ml) with constrains | 0.015 |

Now look at this entry.
Ask: Which IC50 (µg/ml) with constrains value belongs to PGDM1400 (antibody, V domains shown) VH: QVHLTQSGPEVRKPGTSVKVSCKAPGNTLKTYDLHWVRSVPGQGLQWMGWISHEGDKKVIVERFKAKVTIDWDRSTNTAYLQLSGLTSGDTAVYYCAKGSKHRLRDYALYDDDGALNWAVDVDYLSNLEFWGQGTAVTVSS VL: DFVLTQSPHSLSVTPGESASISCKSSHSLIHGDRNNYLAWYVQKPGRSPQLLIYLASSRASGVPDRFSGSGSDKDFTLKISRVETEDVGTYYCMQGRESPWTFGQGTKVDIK ?
Result: 0.02
